- Tested on: 786-0
- Measurement description: NCI tumour cell line growth inhibition, 48 h
The source made the active and inactive calls. Cut-off read from the data, not from the text of the source: active = GI50 up to about 1.1 µM and inactive = higher.
Response enum: active, inactive

Name the outcome recorded for CCc1c2c([nH]c(=S)c1C#N)CCC2 in the assay.
inactive

Name the outcome recorded for COc1cc(OC)cc(Oc2nc3cc(N)cc(N)c3nc2-c2ccccc2)c1 in the assay.
inactive

Name the outcome recorded for COc1cccc(CCn2c(N)c(-c3cc(Cl)cc(Cl)c3)c3ccc([N+](=O)[O-])cc3c2=O)c1 in the assay.
inactive

Name the outcome recorded for CN(C)c1ccc(C2SCC(=O)N2c2ccc(Oc3ccc(Cl)cc3)c(Cl)c2)cc1 (stereo not drawn) in the assay.
inactive

Name the outcome recorded for CN(C)C(=O)Oc1ccc[n+](C)c1 [PYRIDOSTIGMINE BROMIDE] in the assay.
inactive

Name the outcome recorded for Cc1cc2nc(C#N)c(N3CCN(c4ccc([N+](=O)[O-])cc4)CC3)nc2cc1C in the assay.
inactive

Name the outcome recorded for O=C1OC(C2Cc3cc4c(cc3C2=O)CCC4)c2ccccc21 (stereo not drawn) in the assay.
inactive

Name the outcome recorded for CO[C@H](C(=O)[C@@H](O)[C@@H](C)O)[C@@H]1Cc2cc3cc(OC4CC(OC5CC(O)C(O)C(C)O5)C(O)C(C)O4)c(C)c(O)c3c(O)c2C(=O)[C@H]1OC1CC(OC2CC(OC3CC(C)(O)C(O)C(C)O3)C(O)C(C)O2)C(O)C(C)O1 (stereo partly drawn) in the assay.
active

----------
- Test system: LOX IMVI
- Measurement description: NCI tumour cell line growth inhibition, 48 h
Activity calls are given as the source filed them. Rule as the data show it: active = GI50 up to about 1.1 µM and inactive = higher.
Assay metric: GI50

Please report GI50 for the following compound: c1ccc2c(c1)CCN2CCN1CCc2ccccc21
> 10 µM (inactive)

Please report GI50 for the following compound: Clc1ncnc(Cl)c1Cl
> 100 µM (inactive)

Please report GI50 for the following compound: CC1(C)CSCC(C)(C)C(=N/N)/C1=N\N
> 100 µM (inactive)

Please report GI50 for the following compound: CC(=O)O[C@@H]1CC[C@@]2(C)C(CC[C@H]3[C@@H]4CC[C@H]([C@H](C)CCc5nc6cc(C)ccc6[nH]5)[C@@]4(C)CC[C@@H]32)C1 (stereo partly specified)
1.66 µM (inactive)

Please report GI50 for the following compound: Cc1cc2c(cc1Cl)SC(NNc1cnc3ccccc3n1)=NS2(=O)=O
46 µM (inactive)

Please report GI50 for the following compound: CCC1=[N+](CC)CCN1CC
> 100 µM (inactive)

----------
- Test system: SK-OV-3
- Measurement description: NCI tumour cell line growth inhibition, 48 h
Calls of active or inactive are those of the source. Rule as the data show it: active = GI50 up to about 1.1 µM and inactive = higher.
Assay metric: GI50

Please report GI50 for the following molecule: c1csc(-c2ccc(-c3ccsc3)s2)c1
> 100 µM (inactive)

Please report GI50 for the following molecule: CCC(C)N1CN(c2ccccc2)C2(CCN(CC3COc4ccccc4O3)CC2)C1=O (configuration not stated)
33.6 µM (inactive)

Please report GI50 for the following molecule: COc1cc(C2S/C(=C/c3ccccc3)C(=O)N2c2cccc(Cl)c2)cc(OC)c1OC (configuration not stated)
> 100 µM (inactive)

Please report GI50 for the following molecule: C=C[C@@]1(C)CC2(C=C(CO)C(O)O2)Oc2c1c(=O)oc1cccc(C)c21 (some centres not stated)
24.4 µM (inactive)

Please report GI50 for the following molecule: Cc1cc(C)c2nccc(NCCCN(C)C)c2c1[N+](=O)[O-]
> 100 µM (inactive)

Please report GI50 for the following molecule: COc1ccc(/[N+]([O-])=C/c2ccc(OC(=S)S)c(OC)c2)cc1
47.1 µM (inactive)

Please report GI50 for the following molecule: Cc1cccc(N2C(=O)C(=O)C(c3nc4ccccc4s3)/C(=N/NC(=S)NN)C2=O)c1C (configuration not stated)
> 100 µM (inactive)

Please report GI50 for the following molecule: c1ccc2c(c1)Sc1nccc3ccnc-2c13
> 100 µM (inactive)

Please report GI50 for the following molecule: N#CC1CC2(C(=O)C1=O)c1ccccc1-c1ccccc12 (configuration not stated)
> 100 µM (inactive)

Please report GI50 for the following molecule: CCOC(=O)/C(C#N)=N\Nc1ccc(-n2c(C)nc3ccc(Br)cc3c2=O)cc1
> 100 µM (inactive)

Please report GI50 for the following molecule: CC(C)(C)NNC(=O)/C(=C/c1ccc([N+](=O)[O-])cc1)NC(=O)c1ccccc1
> 100 µM (inactive)

Please report GI50 for the following molecule: COC(=O)n1c(=O)n(-c2ccccc2)c(=O)n1C(=O)OC
> 100 µM (inactive)

Please report GI50 for the following molecule: C#CC1(O)CCC2[C@@H]3CCc4cc(Oc5nc(F)nc(-c6c(C)c(C(=O)OCC)n7ccccc67)n5)ccc4C3CC[C@@]21C (some centres not stated)
> 100 µM (inactive)

Please report GI50 for the following molecule: O=C(O)c1ccc([I+]c2ccccc2)cc1
> 100 µM (inactive)

Please report GI50 for the following molecule: O=C(OCCO)C1CC2CC1C1(C2)OCCO1 (configuration not stated)
> 100 µM (inactive)

Please report GI50 for the following molecule: c1ccc(C2=NNC3c4ccccc4-c4ccccc4N3C2)cc1 (configuration not stated)
46.6 µM (inactive)

Please report GI50 for the following molecule: C=C1C(=O)OC2C1C(=O)C/C(C)=C/CCC1(C)OC21 (configuration not stated)
29.6 µM (inactive)

----------
- Test system: KM-20L2
- Measurement description: NCI tumour cell line growth inhibition, 48 h
Calls of active or inactive are those of the source. No stated cut-off is given here; in the data, active = GI50 up to about 1.1 µM and inactive = higher.
Response enum: yes (1) for active, no (0) for inactive

Name the outcome recorded for CCOc1ccc2c(c1)[n+]([O-])c(C(N)=O)c(N)[n+]2[O-] in the assay.
no (0)

Name the outcome recorded for CO[C@H](C(=O)[C@@H](O)[C@@H](C)O)[C@@H]1Cc2cc3cc(OC4CC(OC5CC(O)C(O)C(C)O5)C(O)C(C)O4)c(C)c(O)c3c(O)c2C(=O)[C@H]1OC1CC(OC2CC(OC3CC(C)(O)C(O)C(C)O3)C(O)C(C)O2)C(O)C(C)O1 (stereo partly drawn) in the assay.
yes (1)

Name the outcome recorded for NC(=O)C(=O)n1ncc(Cl)c(Cl)c1=O in the assay.
no (0)

Name the outcome recorded for NC1=NCC(c2ccccn2)C1c1ccc(F)cc1 (stereo not drawn) in the assay.
no (0)

Name the outcome recorded for CCOc1ccc(NC(=O)CC2C(=O)Nc3ccccc3[S+]2[O-])cc1 (stereo not drawn) in the assay.
no (0)

Name the outcome recorded for CCCCCC/C(CC(=O)CCC(=O)NCCc1ccccc1)=N\Nc1ccc([N+](=O)[O-])cc1[N+](=O)[O-] in the assay.
no (0)

Name the outcome recorded for COc1cc(-c2ccc(Nc3ccccc3C(=O)O)c(OC)c2)ccc1Nc1ccccc1C(=O)O in the assay.
no (0)

Name the outcome recorded for Cc1n(CC(=O)c2ccc([N+](=O)[O-])cc2)c2c([n+]1CC(C)C)C(=O)c1ccccc1C2=O in the assay.
yes (1)

Name the outcome recorded for O=C(OCCO)C1CC2CC1C1(C2)OCCO1 (stereo not drawn) in the assay.
no (0)

Name the outcome recorded for COc1cc2ccn3c4cc(OC)c(OC)cc4cc3c2cc1OC in the assay.
no (0)

Name the outcome recorded for N#CC(C#N)=C1SCC(=O)CS1 in the assay.
no (0)

Name the outcome recorded for O=C(CC1Sc2ccccc2NC1=O)Nc1ccccc1[N+](=O)[O-] (stereo not drawn) in the assay.
no (0)

Name the outcome recorded for N#Cc1ccccc1NC(=O)C(=O)C(C(=O)c1ccncc1)C1OC(=O)c2ccccc21 (stereo not drawn) in the assay.
no (0)

Name the outcome recorded for CCCC(O)c1cn(-c2cccc(S(=O)(=O)O)c2)nn1 (stereo not drawn) in the assay.
no (0)

Name the outcome recorded for CCN(CC)Cc1cc(Nc2c3ccccc3nc3c2[nH]c2ccccc23)ccc1O in the assay.
yes (1)

Name the outcome recorded for c1ccc([P+](Cc2csnn2)(c2ccccc2)c2ccccc2)cc1 in the assay.
no (0)

Name the outcome recorded for Cc1cccc2c1CCC21OC(=O)c2c1ccc1ccccc21 (stereo not drawn) in the assay.
no (0)

Name the outcome recorded for Cc1[nH]c(=O)[nH]c(=O)c1/C=C/C(=O)NC(CO)CC(C)C (stereo not drawn) in the assay.
no (0)

Name the outcome recorded for COc1cccc(NC(=O)CC(=O)NN2C(=O)/C(=C/c3ccc(N(CCC#N)CCC#N)cc3)N=C2c2cc([N+](=O)[O-])ccc2Cl)c1 in the assay.
no (0)

Name the outcome recorded for CCCC(S(=O)(=O)c1ccccc1)S(=O)(=O)c1ccccc1 in the assay.
no (0)

Name the outcome recorded for OCc1c[te]c(-c2ccccc2)c1 in the assay.
no (0)

Name the outcome recorded for C=CCc1cc(-c2cc(CC=C)c(O)c(CNC)c2)cc(CNC)c1O in the assay.
no (0)

Name the outcome recorded for CC(C)(C)[Si](C)(C)O/N=C\c1ccc(O[Si](C)(C)C(C)(C)C)cc1 in the assay.
no (0)
